system: aorta (spirally cut strips); test: Smooth Muscle Relaxant: noradrenaline-contracted rat aorta strips; set-up: species or system male Wistar rats; settings: contraction by noradrenaline 1 μM, 37° C.
pIC50: −log10 of the molar value.

Compound: CCCc1c(C(=O)C(C)C)c2ccc(C(N)=O)cc2n1Cc1ccccc1Cl [Example 6]
pIC50: > 7.00
//
Compound: CC(C)Cc1c(C(=O)C(C)C)c2ccc(C(N)=O)cc2n1Cc1ccccc1Cl [Example 12]
pIC50: > 7.00
//
Compound: CCCc1c(C(=O)C(C)C)c2ccc(C(N)=O)cc2n1Cc1ccc(F)cc1Cl [37-(9)]
pIC50: > 7.00
//
Compound: CCc1c(C(=O)C(C)C)c2ccc(C(N)=O)cc2n1Cc1ccccc1Cl [37-(12)]
pIC50: > 7.00
//
Compound: CCCc1c(C(=O)C(C)C)c2ccc(C(N)=O)cc2n1Cc1ccccc1[N+](=O)[O-] [37-(7)]
pIC50: > 7.00

----------
target: cGMP-PDE (Homo sapiens, UniProt O76074); construct: cGMP-PDE was separated from other isozymes in human platelets; from tissue; host or cells: human platelets; assay: cGMP-phosphodiesterase (PDE) Assay (human platelets); assay type: biochemical

Compound: CCCc1c(C(=O)CC)c2ccc(C(N)=O)cc2n1Cc1ccccc1Cl [Example 9]
IC50: < 100 nM
--
Compound: CCCc1c(C(=O)C(C)C)c2ccc(C(N)=O)cc2n1Cc1ccc(F)cc1Cl [37-(9)]
IC50: < 100 nM
--
Compound: CCCc1c(C(=O)C(C)C)c2ccc(C(N)=O)cc2n1Cc1ccccc1C(=O)OC [25-(2)]
IC50: < 100 nM

----------
target: cGMP-PDE (Homo sapiens, UniProt O76074); construct: cGMP-PDE was separated from other isozymes in human platelets; from tissue; host or cells: human platelets; assay: cGMP-phosphodiesterase (PDE) Assay (human platelets); type: biochemical; details: 0.1 μM [3H]-cGMP, 30° C., 10 minutes; read-out: IC50
As shown below, each of these molecules has a reported IC50 value.

Molecule: CCc1c(C(O)C(C)C)c2ccc(C(N)=O)cc2n1Cc1ccccc1Cl (stereo not drawn)
IC50: < 100 nM
//
Molecule: CC(=O)C=Cc1cn(Cc2ccccc2Cl)c2cc(C(N)=O)ccc12
IC50: < 100 nM
//
Molecule: NC(=O)c1ccc2c3c(n(Cc4ccccc4Cl)c2c1)C(=O)CC3
IC50: < 100 nM

----------
tested on: aorta (spirally cut strips); assay: Smooth Muscle Relaxant: noradrenaline-contracted rat aorta strips; set-up: species or system male Wistar rats; settings: contraction by noradrenaline 1 μM, 37° C.

Compound: CCCc1c(C(=O)C2CC2)c2ccc(C(N)=O)cc2n1Cc1cc2c(cc1Cl)OCO2 [73-(33)]
IC50: < 100 nM
//
Compound: CCCc1c(C(=O)C(C)C)c2ccc(C(N)=O)cc2n1Cc1ccccc1C [37-(4)]
IC50: < 100 nM
//
Compound: CCCc1c([N+](=O)[O-])c2ccc(C(=O)OC)cc2n1Cc1ccccc1Cl [Example 72]
IC50: < 100 nM
//
Compound: NC(=O)c1ccc2c3c(n(Cc4cc5c(cc4Cl)OCO5)c2c1)C(=O)CCC3 [75-(8)]
IC50: < 100 nM
//
Compound: CCCc1c(C(=O)C2CCCC2)c2ccc(C(N)=O)cc2n1Cc1ccccc1Cl [73-(36)]
IC50: < 100 nM
//
Compound: CCCc1c(C(=O)COC)c2ccc(C(N)=O)cc2n1Cc1cc2c(cc1Cl)OCO2 [Example 27-(8)]
IC50: < 100 nM
//
Compound: CCc1c(C(=O)C(C)C)c2ccc(C#N)cc2n1Cc1ccccc1Cl [Example 43]
IC50: < 100 nM
